# tested target: 5-HT3AB receptor, 5-HT3B subunit Y143A (Homo sapiens, UniProt O95264+P46098, Y136A)
# Sequence (P46098 24-478): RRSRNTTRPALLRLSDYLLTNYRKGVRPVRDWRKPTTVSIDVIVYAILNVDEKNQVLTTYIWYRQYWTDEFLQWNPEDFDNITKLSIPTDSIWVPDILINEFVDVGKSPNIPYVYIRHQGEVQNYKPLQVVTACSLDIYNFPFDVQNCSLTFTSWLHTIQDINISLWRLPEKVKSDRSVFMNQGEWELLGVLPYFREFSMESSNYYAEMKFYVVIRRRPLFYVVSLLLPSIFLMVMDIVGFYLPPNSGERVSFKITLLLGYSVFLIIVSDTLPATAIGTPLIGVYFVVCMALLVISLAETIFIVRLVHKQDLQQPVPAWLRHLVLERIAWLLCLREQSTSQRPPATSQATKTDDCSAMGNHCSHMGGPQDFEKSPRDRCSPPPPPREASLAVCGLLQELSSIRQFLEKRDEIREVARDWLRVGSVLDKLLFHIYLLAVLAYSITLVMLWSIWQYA
# Sequence (O95264 22-441 Y136A): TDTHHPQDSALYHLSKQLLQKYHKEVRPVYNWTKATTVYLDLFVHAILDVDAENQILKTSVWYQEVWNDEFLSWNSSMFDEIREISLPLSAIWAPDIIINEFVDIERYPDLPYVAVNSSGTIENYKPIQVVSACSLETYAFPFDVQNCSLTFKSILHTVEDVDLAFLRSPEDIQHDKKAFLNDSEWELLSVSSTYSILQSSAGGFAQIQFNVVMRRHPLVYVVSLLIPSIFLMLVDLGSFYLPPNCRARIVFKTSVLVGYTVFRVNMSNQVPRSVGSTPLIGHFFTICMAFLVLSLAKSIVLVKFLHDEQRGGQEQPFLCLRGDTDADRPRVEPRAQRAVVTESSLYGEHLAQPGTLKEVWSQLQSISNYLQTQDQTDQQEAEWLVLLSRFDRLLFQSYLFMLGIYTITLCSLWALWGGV
# method notes: cell-based
measurement name: IC50 (nM)
Report the figure in nM without appending any unit label.

Report IC50, nothing else, for this compound: O=C1c2cccc3c2[C@H](CCC3)CN1[C@@H]1CN2CCC1CC2
0.38
